Consider the following compounds and their measured IRF reporter readings.
tested on: RAW-Dual (murine macrophage reporter line); test: IRF reporter (Lucia luciferase) activity fold change vs agonist alone; higher = enhanced IRF activity; settings: modulator concentration 10 µM; agonist: 3'3'-cGAMP 10 ug/mL
Quick one: just the number, no unit, thanks!

Q) Field request: IRF reporter | item: COc1ccccc1-c1cc(-c2ccccc2)nc(SCC(=O)c2cc3ccccc3oc2=O)c1C#N
A) 0.879

Q) Field request: IRF reporter | item: COc1ccc(NCN2C(=O)c3ccccc3C2=O)c(OC)c1
A) 0.911

Q) Field request: IRF reporter | item: CSc1ccccc1NC(=O)C1CCCN(c2ccc(-n3cncn3)nn2)C1 (stereo unspecified)
A) 0.973

Q) Field request: IRF reporter | item: CC(=O)c1ccc(NC(=O)c2ccccc2C(=O)O)cc1
A) 0.903

Q) Field request: IRF reporter | item: Cl.N=C(N)NCCC[C@H](N)C(=O)O
A) 0.896

---

test system: RAW-Dual (murine macrophage reporter line); assay: NF-kB reporter (SEAP) activity fold change vs agonist alone; higher = enhanced NF-kB activity; conditions: modulator concentration 10 µM; agonist: LPS 0.1 ug/mL
MEASURE: NF-kB reporter

Known NF-kB reporter results, listed for orientation:
COMPOUND: COc1ccc(N(CC(=O)Nc2ccccc2C(F)(F)F)S(C)(=O)=O)cc1Cl
RECORDED VALUE: 1.02

COMPOUND: CCOc1ccccc1O[C@H](c1ccccc1)[C@H]1CNCCO1.CS(=O)(=O)O
RECORDED VALUE: 0.979

COMPOUND: COCC(=O)N1CCC2(CC1)NC(=O)N(Cc1ccc(Cl)cc1)C2=O
RECORDED VALUE: 1.05

COMPOUND: CC/C(=C(\c1ccccc1)c1ccc(OCCN(C)C)cc1)c1ccccc1.O=C(O)CC(O)(CC(=O)O)C(=O)O
RECORDED VALUE: 0.859

COMPOUND: CC(C)C(=O)Nc1ccc([N+](=O)[O-])c(C(F)(F)F)c1
RECORDED VALUE: 1.06

Q) Field request: NF-kB reporter | item: C[C@]1(O)C[C@@H](c2nc(-c3ccc4ccc(-c5ccccc5)nc4c3)c3c(N)nccn32)C1
A) 1.26

Q) Field request: NF-kB reporter | item: CC1COc2c(N3CCN(C)CC3)c(F)cc3c(=O)c(C(=O)O)cn1c23 (stereo unspecified)
A) 1.01

---

tested on: RAW-Dual (murine macrophage reporter line); assay: NF-kB reporter (SEAP) activity fold change vs agonist alone; higher = enhanced NF-kB activity; conditions: modulator concentration 10 µM; agonist: MPLA […]
If the reported NF-kB reporter equals or exceeds 1, assign Met. If not, assign Not met.

COMPOUND: COc1ccc(CNCc2ccc3ccccc3c2)c(OC)c1
ASSIGNED CATEGORY: Met
//
COMPOUND: N#Cc1cc(-c2n[nH]c(-c3ccncc3)n2)ccn1
ASSIGNED CATEGORY: Not met
//
COMPOUND: COc1ccc(NC(=O)CN(c2ccc(C)c(C)c2)S(C)(=O)=O)cc1Cl
ASSIGNED CATEGORY: Not met
//
COMPOUND: COc1ccc(N2C(=O)C(=Cc3ccc([N+](=O)[O-])s3)SC2=S)cc1
ASSIGNED CATEGORY: Met
//
COMPOUND: Cc1ccc(C)c(NC(=O)CCN2CCN(C=O)CC2)c1
ASSIGNED CATEGORY: Not met
//
COMPOUND: Cc1cc(C)n(C2CC(=O)N(c3ccccc3)C2=O)n1 (stereo unspecified)
ASSIGNED CATEGORY: Met
//
COMPOUND: CC(C)Sc1ccc(CC(=O)N2C3C=CCC2CC3)cc1 (stereo unspecified)
ASSIGNED CATEGORY: Met
//
COMPOUND: NCCNc1ccc(NCCN)c2c1C(=O)c1ccncc1C2=O.O=C(O)/C=C\C(=O)O.O=C(O)/C=C\C(=O)O
ASSIGNED CATEGORY: Met

Q) Does the compound CCOc1ccccc1O[C@H](c1ccccc1)[C@H]1CNCCO1.CS(=O)(=O)O have recorded NF-kB reporter that is 1 or more?
A) Met

Q) Does the compound Cn1c(=O)c2c(ncn2CC(O)CO)n(C)c1=O (stereo unspecified) have recorded NF-kB reporter that is 1 or more?
A) Met
